# experiment_description: Mouse PK study (IV and PO), plasma parent compound and psilocin by LC-MS/MS
# Assay type: in vivo
# measurement_parameters: male, C57Bl/6, mouse, plasma, oral, 10 mg/kg, 10 mg/kg oral C(I); 0.25 h; per animal; BLQ <0.5 ng/mL; read-out: Plasma concentration of C(I)
endpoint_name: concentration at 0.25 h (ng/mL)

mol_smiles | endpoint_name | value_reported
CN(C)CCc1c[nH]c2cccc(OC(=O)c3ccc(Br)cc3)c12 | concentration at 0.25 h | 7.2

###

# experiment_description: Mouse PK study (IV and PO), plasma parent compound and psilocin by LC-MS/MS
# Type: in vivo
# measurement_parameters: male, C57Bl/6, mouse, plasma, po, 10 mg/kg, C(I) in plasma; 10 mg/kg oral C(I); per animal; read-out: Apparent t1/2 (converted)
endpoint_name: half-life (h)

mol_smiles | endpoint_name | value_reported
CN(C)CCc1c[nH]c2cccc(OC(=O)c3ccc(Br)cc3)c12 | half-life | 1.45

###

# system_name: ADRA1A (Homo sapiens, UniProt P35348)
# Sequence (P35348 whole entry): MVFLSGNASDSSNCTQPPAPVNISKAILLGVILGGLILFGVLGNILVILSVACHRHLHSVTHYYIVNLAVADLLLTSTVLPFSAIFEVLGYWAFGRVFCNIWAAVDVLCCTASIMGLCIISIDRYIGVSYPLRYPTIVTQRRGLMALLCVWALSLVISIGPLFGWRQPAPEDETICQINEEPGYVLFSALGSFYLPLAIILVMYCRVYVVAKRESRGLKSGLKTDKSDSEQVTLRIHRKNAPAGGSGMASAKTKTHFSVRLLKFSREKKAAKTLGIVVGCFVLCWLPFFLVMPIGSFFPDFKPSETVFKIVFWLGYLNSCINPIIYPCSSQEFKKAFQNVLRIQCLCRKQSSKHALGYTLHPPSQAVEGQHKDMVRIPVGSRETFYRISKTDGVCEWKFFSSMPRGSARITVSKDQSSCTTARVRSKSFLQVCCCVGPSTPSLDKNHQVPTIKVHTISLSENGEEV
# experiment_description: Calcium secondary messenger assay, agonist mode
pEC50: −log10 of the molar value.
endpoint_name: pEC50

compound | value_reported
COc1ccc(C(=O)Oc2cccc3[nH]cc(CCN(C)C)c23)cc1 [C(V)] | < 4.00
CN(C)CCc1c[nH]c2cccc(OC(=O)c3cccc4c3OCCO4)c12 [C(XX)] | < 4.00
CN(C)CCc1c[nH]c2cccc(OC(=O)c3c(F)c(F)c(F)c(F)c3F)c12 [C(VI)] | 4.46
CN(C)CCc1c[nH]c2cccc(OC(=O)CC3CC3)c12 [C(IV)] | < 4.00
CN(C)CCc1c[nH]c2cccc(OC(=O)c3ccc(Br)cc3)c12 [C(I)] | < 4.00

###

# experiment_description: Mouse PK study (IV and PO), plasma parent compound and psilocin by LC-MS/MS
# Format: in vivo
# measurement_parameters: male, C57Bl/6, mouse, plasma, intravenous, 1 mg/kg, 1 mg/kg i.v. C(XX); 4 h; Mean ± SD; read-out: Plasma concentration of C(XX)

mol_smiles | concentration at 4 h / ng/mL
CN(C)CCc1c[nH]c2cccc(OC(=O)c3cccc4c3OCCO4)c12 | 0.181

###

# experiment_description: Mouse PK study (IV and PO), plasma parent compound and psilocin by LC-MS/MS
# Format: in vivo
# measurement_parameters: male, C57Bl/6, mouse, plasma, oral, 10 mg/kg, 10 mg/kg oral C(I); 4 h; per animal; BLQ <0.5 ng/mL; read-out: Plasma concentration of C(I)

compound | concentration at 4 h / ng/mL
CN(C)CCc1c[nH]c2cccc(OC(=O)c3ccc(Br)cc3)c12 [C(I)] | 1.71

###

# experiment_description: Mouse PK study (IV and PO), plasma parent compound and psilocin by LC-MS/MS
# Assay type: in vivo
# measurement_parameters: male, C57Bl/6, mouse, plasma, po, 10 mg/kg, C(I) in plasma; 10 mg/kg oral C(I); per animal; read-out: AUC0-tlast

mol_smiles | AUC(0-t) / ng·h/mL
CN(C)CCc1c[nH]c2cccc(OC(=O)c3ccc(Br)cc3)c12 | 15.8

###

# experiment_description: Mouse PK study (IV and PO), plasma parent compound and psilocin by LC-MS/MS
# Type: in vivo
# measurement_parameters: male, C57Bl/6, mouse, plasma, oral, 1 mg/kg, 1 mg/kg oral C(I); 1 h; per animal; BLQ <0.5 ng/mL; read-out: Plasma concentration of C(I)
endpoint_name: concentration at 1 h

mol_smiles | value_reported
CN(C)CCc1c[nH]c2cccc(OC(=O)c3ccc(Br)cc3)c12 | 0.775 ng/mL
